- protocol_details: amyloid nucleation score (Sup35N fusion, yeast selection) (log enrichment); library NNK2; higher = more nucleation; inactive = no reads after selection;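 note: zero at mode of non-aggregating sequences after 7 days selection at 30°C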
outcome_measure: amyloid nucleation score

1. YGFLCRL ... inactive
2. WGLFPLQCHLVYRLLLSFHK ... inactive
3. WDTHLYQDMGCFAHLFIRYF ... inactive
4. LGSAYSGKPHVFCS ... inactive
5. LCYMFIFRTWMLLWVQTMKN ... inactive

###

- protocol_details: amyloid nucleation score (Sup35N fusion, yeast selection) (log enrichment); library NNK1; higher = more nucleation; inactive = no reads after selection
Rule: amyloid nucleation score under -0.1 gives N, otherwise Y.

1. PSSIWNAMFYGYNCMYLLKT ... N
2. AFYGVDFSSGRGLFSY ... N
3. EFTGDRQSYFCLQYSCTSLR ... Y
4. KTCYLQ ... N
5. CKSGDLSECCRIWHRWA ... Y
6. SRSSGFAVTYSNTRTKKSKA ... N
7. EMNLSLSVCALFRFIT ... N
8. GQSKLVLHFAILTVVAWPFD ... Y

###

- protocol_details: amyloid nucleation score (Sup35N fusion, yeast selection) (log enrichment); library NNK3; higher = more nucleation; inactive = no reads after selection
outcome_measure: amyloid nucleation score

1) YSYRVRTSFVENRKCA ... inactive
2) FSGRFHMENTMYHTIYKIKS ... inactive
3) FADYFASSIFWYRCASHLGW ... inactive
4) WSLMCRVAYRYGRVRNSKSG ... inactive
5) HVGAIMLLLLLTSERLMTLD ... inactive
6) IEREMCTGNLVPLNAWKRFH ... inactive
7) CPRGPWFFTTTAVTSALNIS ... -0.016
8) AYMRHFF ... inactive
9) RLETMGLRNNVVCNSSEALQ ... inactive
10) CFYSNQASQVLLLYHP ... 0.771
11) TLASTGYFFR ... inactive
12) DIVLFLG ... inactive
13) TYRSTLSVSMAVRGSEMLD ... -0.085
14) VTLCLSKLAF ... 1.26
15) DMATVIVSKLFTVVVWYLFW ... inactive
16) MIYSHDHTYHSCLLDAVSCR ... inactive
17) RCGEDNLQGSLSTSTVGNLV ... inactive
18) WVCPCKSGMSQNWRFYNPSR ... inactive
19) ESDGCNNQFRHWSHCRSKNP ... inactive
20) CAHKSGQACKHGVF ... 0.533
21) LDMKPRQARTFFLNHGVLPA ... 0.313
22) CDHCRDKCMANRMSSRSLRW ... inactive
23) FIKLKGL ... inactive
24) HAFRVSLSLVVVCCVIWDTN ... inactive
25) YNCRVAVRWYS ... inactive
26) MILKNWNVSISRGSRFNSYV ... inactive
27) YVIYFSN ... -0.389

###

Recorded amyloid nucleation score by entry
- protocol_details: amyloid nucleation score (Sup35N fusion, yeast selection) (log enrichment); library NNK2; higher = more nucleation; inactive = no reads after selection
outcome_measure: amyloid nucleation score

1. GRYNLLNKGNSAGVWCGLFS ... -0.324
2. RSMYFGVQSLMYRSRLPKGS ... 4.01
3. YRLNVNKSSNQGV ... -0.712
4. LNMTSFAVKLEANYL ... -0.565
5. EADELGLLVSIKCRAARRCW ... 5.74
6. TGCWVEERTRLRLRIYDLLY ... 0.004
7. NMMCISSHGSTTSGFLRSSL ... 3.52
8. LTFVCVV ... 0.048
9. LILNIRTTGCGYFC ... 8.82
10. ELFFCFKRLHGLMGYNDLES ... 4.13
11. VRVDGPTLWCTQVRLSGERA ... 0.951
12. VDRFPVLVPKGWHMRRWCIR ... 0.669
13. MSIRIGEWPVHSGAYEESLK ... 0.223
14. YVKVVFCFDLAAMTSRRFYE ... 0.228
15. TPNIGSSRVVMLSLQLLN ... 6.96
16. RSWKLGVDGWPLMSEFP ... 1.64
17. HVFMSTIKICRDQLNHQLRE ... 7.73
18. CKLTRGSPMSYSEVR ... -0.188
19. ANPWDRSFIVKVCRSDVVRV ... 0.246
20. FVIVVFRPLGKWQRLFFCNC ... 0.811
21. PSPVIWPISSPGFQSLCICS ... -0.38
22. CLPCCGAFNKCANRYQVSEM ... -0.249
23. NYWCMVV ... 5.24
24. LSVCVRHEDGGSIAVECGS ... 0.242
25. LRSCKALGGGVTRPTGYS ... 0.709
26. LFVIGLLSGVSICVYCRSWS ... 3.41
27. NLNFKDGPGDLTCMRDRAFS ... -0.508
28. HCLGRLVASWNPQWEFHRRT ... 0.103
29. WFISGISKLMRHFALKYASM ... 2.5
30. VDCTEV ... 1.26
31. DGSERIPCLSNYHMLRLTNS ... -0.001
32. APFDMVGVTVLDSPVMYTNA ... 0.512
33. FKFVGNSQAQVWNMCESNDS ... -0.369
34. FTVKGTITVYFMVAV ... 2.17
35. SYLVLIHKALSFGRTISDHP ... -0.467
36. WQVYQFSCRAEGEDL ... 2.48
37. PLISRYDYFVCIRILSHSDN ... 0.98
38. ISHYAYQ ... 0.811
39. CGLNCVAGGREEDRVYVLSS ... 0.088
40. VIEMRHDRFFTVYSVEITAG ... 0.623
41. NFDSYVYNVASVFYVVGLGV ... 5.32
42. VLLLAQHVLSGSNFTMG ... 3.44
43. DSWFGRFYDEESSWCWAMVR ... 0.039
44. NWLQDK ... 1.61
45. LDLRMRYQVPYQWGTNSAEN ... 0.629
46. LRLDLRMPQRYRLGDTFVSS ... 0.243
47. SKARGLCFLSVLLFISDQST ... -1.78
48. VAPTETRVDPIPSVGPVPGA ... 1.66
49. AFYKFMSEHSSAVHCDPMHD ... -0.025
50. SSGGGYWLLWVE ... -0.559
51. RCLPSIFDPMRVTRVLPELY ... -0.017
